- TEST_SETTINGS: 336.16 K; 101.33 kPa; Liquid; Pulse-echo method
PROPERTY_NAME: speed of sound (m/s)

COMPOUND	PROPERTY_NAME	NUMERIC_READOUT
CCC(=O)[O-].C[NH2+]CCO [2-hydroxy-N-methylethanaminium propionate]	speed of sound	1576.7
CCCCC(=O)[O-].C[NH2+]CCO [2-hydroxy-N-methylethanaminium pentanoate]	speed of sound	1431.7
CC(C)C(=O)[O-].C[NH2+]CCO [2-hydroxy-N-methylethanaminium isobutyrate]	speed of sound	1503.3
CCCC(=O)[O-].C[NH2+]CCO [N-methyl-2-hydroxyethylammonium butanoate]	speed of sound	1495.4
C[NH2+]CCO.O=C[O-] [2-hydroxy-N-methylethanaminium formate]	speed of sound	1742

====

- TEST_SETTINGS: 288.15 K; 101.33 kPa; Liquid; Vibrating tube method
Overview of reported mass density across a group of compounds:
PROPERTY_NAME: mass density (kg/m3)

COMPOUND	UNIT_OF_MEASUREMENT	NUMERIC_READOUT
CC(C)C(=O)[O-].C[NH2+]CCO [2-hydroxy-N-methylethanaminium isobutyrate]	kg/m3	1049.68
CCCC(=O)[O-].C[NH2+]CCO [N-methyl-2-hydroxyethylammonium butanoate]	kg/m3	1046.01
CC(=O)[O-].C[NH2+]CCO [N-methyl-2-hydroxyethylammonium acetate]	kg/m3	1106.8
CCC(=O)[O-].C[NH2+]CCO [2-hydroxy-N-methylethanaminium propionate]	kg/m3	1077.79
CCCCC(=O)[O-].C[NH2+]CCO [2-hydroxy-N-methylethanaminium pentanoate]	kg/m3	1022.99
C[NH2+]CCO.O=C[O-] [2-hydroxy-N-methylethanaminium formate]	kg/m3	1133.84

====

This listing pairs compounds with measured mass density.
- TEST_SETTINGS: 331.66 K; 101.33 kPa; Liquid; Vibrating tube method

COMPOUND	mass density / kg/m3
CC(=O)[O-].C[NH2+]CCO [N-methyl-2-hydroxyethylammonium acetate]	1080.29
C[NH2+]CCO.O=C[O-] [2-hydroxy-N-methylethanaminium formate]	1109.73
CC(C)C(=O)[O-].C[NH2+]CCO [2-hydroxy-N-methylethanaminium isobutyrate]	1021.29
CCCCC(=O)[O-].C[NH2+]CCO [2-hydroxy-N-methylethanaminium pentanoate]	993.296
CCCC(=O)[O-].C[NH2+]CCO [N-methyl-2-hydroxyethylammonium butanoate]	1016.3
CCC(=O)[O-].C[NH2+]CCO [2-hydroxy-N-methylethanaminium propionate]	1049.05

====

Here, each record is paired with measured speed of sound data.
- TEST_SETTINGS: 313.66 K; 101.33 kPa; Liquid; Pulse-echo method
Numbers after ± are expanded uncertainties.
PROPERTY_NAME: speed of sound

COMPOUND	PROPERTY_NAME	RESULT
C[NH2+]CCO.O=C[O-] [2-hydroxy-N-methylethanaminium formate]	speed of sound	1785.1 ± 2.2 m/s
CCCCC(=O)[O-].C[NH2+]CCO [2-hydroxy-N-methylethanaminium pentanoate]	speed of sound	1500.7 ± 2.1 m/s
CCCC(=O)[O-].C[NH2+]CCO [N-methyl-2-hydroxyethylammonium butanoate]	speed of sound	1565.9 ± 2.1 m/s
CC(C)C(=O)[O-].C[NH2+]CCO [2-hydroxy-N-methylethanaminium isobutyrate]	speed of sound	1567.5 ± 2.1 m/s
CCC(=O)[O-].C[NH2+]CCO [2-hydroxy-N-methylethanaminium propionate]	speed of sound	1644.2 ± 2.1 m/s

Reference source for all entries: the NIST ThermoML archive (doi:10.1021/je900550v)
